Test system: biotinyl-Trp-oxazolone
TEST_PROTOCOL: self-aminoacylation, catalytic enhancement (BWO) (fold over background); higher = more active; k-Seq, kA / k0A0; sequences stand for … in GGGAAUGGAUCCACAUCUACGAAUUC…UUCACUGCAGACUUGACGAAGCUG
Fewer inactive variants are shown than the library holds.
EXPERIMENTAL_ENDPOINT: self-aminoacylation
Keep the answer to the number alone.

See these solved cases before continuing.
INSERT INTO results (construct_sequence, recorded_measurement) VALUES
  ('CUACUUCAAACAAGCGGGCUG [Fam1A.1 aminoacylation ribozyme variant]', 1.88),
  ('AUUCCCUUAGGUCAUCGGGUG [Fam2.2 aminoacylation ribozyme variant]', 30.7);

# get_value(readout='self-aminoacylation', item= AGUACCCUGGUCAACGAGUGA [Fam2.1 aminoacylation ribozyme variant] ) 5.71

Endpoint output: self-aminoacylation of CUUCGCCUAGGUCAUCGGGUG [Fam2.2 aminoacylation ribozyme variant] . Value? 5.8

Name the recorded self-aminoacylation for CCGCACUUCAAACAAUCGGUC [Fam1B.1 aminoacylation ribozyme variant] . 74.3

Name the reported self-aminoacylation value associated with the sequence CCACACUUCCAGCAAUCGCUC [Fam1B.1 aminoacylation ribozyme variant] 1.59

# lookup: self-aminoacylation of CUACUUCAAACAAUCGGUGUC [Fam1A.1 aminoacylation ribozyme variant] 0.851

Look up self-aminoacylation: AUUGACCUAGGUCACCGGGUG [Fam2.2 aminoacylation ribozyme variant] 6.05
